Target system: T1, Human CD3eg linker (human)
T1 construct: Single chain: epsilon and gamma subunits of human CD3 joined by a 29-mer linker, Flag-tag at the C-terminus; also called recombinant human CD3
T1 chain: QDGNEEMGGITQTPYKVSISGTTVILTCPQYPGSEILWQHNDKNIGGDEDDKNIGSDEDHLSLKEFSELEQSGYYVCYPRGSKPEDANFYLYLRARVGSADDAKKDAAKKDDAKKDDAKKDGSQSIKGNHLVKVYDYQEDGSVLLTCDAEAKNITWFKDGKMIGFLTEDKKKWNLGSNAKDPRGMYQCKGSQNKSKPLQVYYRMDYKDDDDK
Assay info: Biacore SPR, vs template H183/L072
Listed below: fold change of affinity values for each entry.
Give the value, in units of fold, as a plain number.

Use the examples below as a reference point.
H183/L072 VH T28E (antibody, name in Kabat numbering, V domains shown) VH: QVQLVESGGGLVQPGRSLRLSCAASGFEFSNAWMHWVRQAPGKGLEWVAQIKDKGNAYAAYYAPSVKGRFTISRDDSKNSIYLQMNSLKTEDTAVYYCHYVHYASASTVLPAFGVDAWGQGTTVTVSS VL: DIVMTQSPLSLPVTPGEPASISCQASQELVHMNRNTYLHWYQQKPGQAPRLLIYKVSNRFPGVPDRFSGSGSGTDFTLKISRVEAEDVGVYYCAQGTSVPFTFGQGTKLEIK
0.6
H183/L072 VH N53L (antibody, name in Kabat numbering, V domains shown) VH: QVQLVESGGGLVQPGRSLRLSCAASGFTFSNAWMHWVRQAPGKGLEWVAQIKDKGLAYAAYYAPSVKGRFTISRDDSKNSIYLQMNSLKTEDTAVYYCHYVHYASASTVLPAFGVDAWGQGTTVTVSS VL: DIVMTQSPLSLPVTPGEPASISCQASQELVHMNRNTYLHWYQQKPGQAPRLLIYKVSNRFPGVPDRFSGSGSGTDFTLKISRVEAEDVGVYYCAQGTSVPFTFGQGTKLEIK
0.6
H183/L072 VH A57F (antibody, name in Kabat numbering, V domains shown) VH: QVQLVESGGGLVQPGRSLRLSCAASGFTFSNAWMHWVRQAPGKGLEWVAQIKDKGNAYAFYYAPSVKGRFTISRDDSKNSIYLQMNSLKTEDTAVYYCHYVHYASASTVLPAFGVDAWGQGTTVTVSS VL: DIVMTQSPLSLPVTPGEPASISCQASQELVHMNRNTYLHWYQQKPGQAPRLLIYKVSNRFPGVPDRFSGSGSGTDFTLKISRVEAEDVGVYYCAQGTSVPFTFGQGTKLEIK
0.4

q: Requested read-out: fold change of affinity. Entry: H183/L072 VH F100gL (antibody, name in Kabat numbering, V domains shown) VH: QVQLVESGGGLVQPGRSLRLSCAASGFTFSNAWMHWVRQAPGKGLEWVAQIKDKGNAYAAYYAPSVKGRFTISRDDSKNSIYLQMNSLKTEDTAVYYCHYVHYASASTVLPALGVDAWGQGTTVTVSS VL: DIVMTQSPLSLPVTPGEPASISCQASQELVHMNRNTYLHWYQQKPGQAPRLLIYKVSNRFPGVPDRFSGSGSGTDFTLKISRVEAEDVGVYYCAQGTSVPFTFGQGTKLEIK
a: 1.3

q: Requested read-out: fold change of affinity. Entry: H183/L072 VH Q50I (antibody, name in Kabat numbering, V domains shown) VH: QVQLVESGGGLVQPGRSLRLSCAASGFTFSNAWMHWVRQAPGKGLEWVAIIKDKGNAYAAYYAPSVKGRFTISRDDSKNSIYLQMNSLKTEDTAVYYCHYVHYASASTVLPAFGVDAWGQGTTVTVSS VL: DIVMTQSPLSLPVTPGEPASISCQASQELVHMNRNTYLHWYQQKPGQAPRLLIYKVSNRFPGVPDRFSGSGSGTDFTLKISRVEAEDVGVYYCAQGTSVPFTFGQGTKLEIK
a: 0.4
